All values here come from paper PMC10247784.

Attribute: RLU
- Tested target: mouse Tas2r105 (Mus musculus, UniProt Q9JKT4)
- Construct: expressed in transfected cells; host or cells: HEK293T-Gα16gust44
- Sequence (Q9JKT4 whole entry): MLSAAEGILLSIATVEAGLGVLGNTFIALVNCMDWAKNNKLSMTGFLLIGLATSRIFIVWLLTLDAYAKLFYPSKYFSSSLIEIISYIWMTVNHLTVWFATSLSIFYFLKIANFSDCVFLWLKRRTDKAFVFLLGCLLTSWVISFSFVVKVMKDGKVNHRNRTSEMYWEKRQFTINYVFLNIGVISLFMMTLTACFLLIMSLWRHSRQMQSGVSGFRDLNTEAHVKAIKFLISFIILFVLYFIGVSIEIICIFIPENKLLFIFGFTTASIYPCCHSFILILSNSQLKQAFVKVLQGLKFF
- Test: Calcium imaging assay (FLIPR), HEK293T-Gα16gust44 cells transfected with mouse Tas2r105
- Assay type: cell-based
- Assay setup: Time 14 s
- Method: This set of bile acids was chosen because of their commercial availability in high purities, their diversity within the class of bile acids and their previous detection and quantitation in human blood. Stock solutions were prepared in DMSO. […] Measured data were negative control corrected by subtracting the signal of the mock-transfected cells and exported to Microsoft Excel using the FLIPR software ScreenWorks 4.2. […]
Measurement name: RLU (RLU)

- Smiles str: "C[C@H](CCC(=O)O)[C@H]1CC[C@H]2[C@@H]3CC[C@@H]4C[C@H](O)CC[C@]4(C)[C@H]3C[C@H](O)[C@]12C"
  Measurement name: "RLU"
  Unit: "RLU"
  Recorded number: -8.452
- Smiles str: "C[C@H](CCC(=O)O)[C@H]1CC[C@H]2[C@@H]3[C@H](O)C[C@@H]4C[C@H](O)CC[C@]4(C)[C@H]3C[C@H](O)[C@]12C"
  Measurement name: "RLU"
  Unit: "RLU"
  Recorded number: -7.0734
- Smiles str: "C[C@H](CCC(=O)NCC(=O)O)[C@H]1CC[C@H]2[C@@H]3[C@H](O)C[C@@H]4C[C@H](O)CC[C@]4(C)[C@H]3C[C@H](O)[C@]12C"
  Measurement name: "RLU"
  Unit: "RLU"
  Recorded number: -34.7557
- Smiles str: "C[C@H](CCC(=O)O)[C@H]1CC[C@H]2[C@@H]3CC[C@@H]4C[C@H](O)CC[C@]4(C)[C@H]3CC[C@]12C"
  Measurement name: "RLU"
  Unit: "RLU"
  Recorded number: 8.271

----------
- Tested target: human TAS2R14 (Homo sapiens, UniProt Q9NYV8)
- Construct: expressed in transfected cells; host or cells: HEK293T-Gα16gust44
- Sequence (Q9NYV8 whole entry): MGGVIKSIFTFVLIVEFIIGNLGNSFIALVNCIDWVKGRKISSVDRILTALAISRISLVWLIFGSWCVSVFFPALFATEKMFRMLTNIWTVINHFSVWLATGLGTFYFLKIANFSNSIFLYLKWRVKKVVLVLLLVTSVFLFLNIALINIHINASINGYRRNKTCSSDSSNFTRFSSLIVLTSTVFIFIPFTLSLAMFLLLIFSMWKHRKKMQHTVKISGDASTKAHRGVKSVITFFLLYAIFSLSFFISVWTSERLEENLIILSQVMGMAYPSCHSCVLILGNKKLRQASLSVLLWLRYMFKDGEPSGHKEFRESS
- Test: Calcium imaging assay (FLIPR), HEK293T-Gα16gust44 cells transfected with human TAS2R14
- Type: cell-based
- Assay setup: TAS2R14 trace; Time (s) 209.578 (Taurocholic Acid 209.563, Chenodeoxycholic Acid 209.546)
Binary classification by RLU, with 600 RLU as an inclusive lower bound for Criterion met; all other cases are Criterion not met.

- Compound: "C[C@H](CCC(=O)NCCS(=O)(=O)O)[C@H]1CC[C@H]2[C@@H]3CC[C@@H]4C[C@H](O)CC[C@]4(C)[C@H]3CC[C@]12C [Taurolithocholic Acid, taurolithocholic acid]"
  Category label: "Criterion not met"
- Compound: "C[C@H](CCC(=O)O)[C@H]1CC[C@H]2[C@@H]3[C@H](O)C[C@@H]4C[C@H](O)CC[C@]4(C)[C@H]3C[C@H](O)[C@]12C [Cholic Acid, cholic acid]"
  Category label: "Criterion met"
- Compound: "C[C@H](CCC(=O)O)[C@H]1CC[C@H]2[C@@H]3[C@H](O)C[C@@H]4C[C@H](O)CC[C@]4(C)[C@H]3CC[C@]12C [Chenodeoxycholic Acid, chenodeoxycholic acid]"
  Category label: "Criterion not met"
- Compound: "C[C@H](CCC(=O)NCCS(=O)(=O)O)[C@H]1CC[C@H]2[C@@H]3[C@H](O)C[C@@H]4C[C@H](O)CC[C@]4(C)[C@H]3C[C@H](O)[C@]12C [Taurocholic Acid, taurocholic acid]"
  Category label: "Criterion met"

----------
Attribute: Δ F/F
- Tested on: HEK293T-Gα16gust44 cells transfected with empty vector (mock)
- Test: Calcium imaging assay (FLIPR), empty vector control (mock)
- Assay type: cell-based
- Assay setup: Mock (sheet Tas2r123); conc. 0,003 mM

- Smiles str: "C[C@H](CCC(=O)O)[C@H]1CC[C@H]2[C@@H]3CC[C@@H]4C[C@H](O)CC[C@]4(C)[C@H]3C[C@H](O)[C@]12C"
  Δ F/F: -0.0005125
- Smiles str: "C[C@H](CCC(=O)NCC(=O)O)[C@H]1CC[C@H]2[C@@H]3[C@H](O)C[C@@H]4C[C@H](O)CC[C@]4(C)[C@H]3C[C@H](O)[C@]12C"
  Δ F/F: -0.001948
- Smiles str: "C[C@H](CCC(=O)O)[C@H]1CC[C@H]2[C@@H]3[C@H](O)C[C@@H]4C[C@H](O)CC[C@]4(C)[C@H]3C[C@H](O)[C@]12C"
  Δ F/F: -0.0002243
- Smiles str: "C[C@H](CCC(=O)O)[C@H]1CC[C@H]2[C@@H]3[C@@H](O)C[C@@H]4C[C@H](O)CC[C@]4(C)[C@H]3CC[C@]12C"
  Δ F/F: -0.001793
- Smiles str: "C[C@H](CCC(=O)NCCS(=O)(=O)O)[C@H]1CC[C@H]2[C@@H]3[C@H](O)C[C@@H]4C[C@H](O)CC[C@]4(C)[C@H]3C[C@H](O)[C@]12C"
  Δ F/F: -0.001321

----------
- Tested target: mouse Tas2r144 (Mus musculus)
- Construct: expressed in transfected cells; host or cells: HEK293T-Gα16gust44
- Sequence (Q7TQB8 whole entry): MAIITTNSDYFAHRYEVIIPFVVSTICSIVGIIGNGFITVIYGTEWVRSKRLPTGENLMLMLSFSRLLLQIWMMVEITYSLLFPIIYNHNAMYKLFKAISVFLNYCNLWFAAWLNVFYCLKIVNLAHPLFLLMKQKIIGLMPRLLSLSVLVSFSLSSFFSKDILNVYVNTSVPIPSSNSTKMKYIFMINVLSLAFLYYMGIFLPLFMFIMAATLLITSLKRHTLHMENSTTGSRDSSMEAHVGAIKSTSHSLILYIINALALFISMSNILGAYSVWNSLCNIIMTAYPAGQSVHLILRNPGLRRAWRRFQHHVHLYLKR
- Test: Calcium imaging assay (FLIPR), HEK293T-Gα16gust44 cells transfected with mouse Tas2r144
- Assay type: cell-based
- Assay setup: Time 130.781 s
Measurement name: RLU

- Smiles str: "C[C@H](CCC(=O)NCCS(=O)(=O)O)[C@H]1CC[C@H]2[C@@H]3[C@H](O)C[C@@H]4C[C@H](O)CC[C@]4(C)[C@H]3C[C@H](O)[C@]12C"
  Tested target: "mouse Tas2r144 (Mus musculus)"
  Result: "423.189 RLU"
- Smiles str: "C[C@H](CCC(=O)O)[C@H]1CC[C@H]2[C@@H]3[C@H](O)C[C@@H]4C[C@H](O)CC[C@]4(C)[C@H]3C[C@H](O)[C@]12C"
  Tested target: "mouse Tas2r144 (Mus musculus)"
  Result: "337.354 RLU"
- Smiles str: "C[C@H](CCC(=O)NCC(=O)O)[C@H]1CC[C@H]2[C@@H]3[C@H](O)C[C@@H]4C[C@H](O)CC[C@]4(C)[C@H]3C[C@H](O)[C@]12C"
  Tested target: "mouse Tas2r144 (Mus musculus)"
  Result: "273.404 RLU"
- Smiles str: "C[C@H](CCC(=O)NCCS(=O)(=O)O)[C@H]1CC[C@H]2[C@@H]3CC[C@@H]4C[C@H](O)CC[C@]4(C)[C@H]3CC[C@]12C"
  Tested target: "mouse Tas2r144 (Mus musculus)"
  Result: "325.368 RLU"

----------
Attribute: RLU, fluorescence trace
- Tested target: human TAS2R4 (Homo sapiens, UniProt Q9NYW5)
- Construct: expressed in transfected cells; host or cells: HEK293T-Gα16gust44
- Sequence (Q9NYW5 whole entry): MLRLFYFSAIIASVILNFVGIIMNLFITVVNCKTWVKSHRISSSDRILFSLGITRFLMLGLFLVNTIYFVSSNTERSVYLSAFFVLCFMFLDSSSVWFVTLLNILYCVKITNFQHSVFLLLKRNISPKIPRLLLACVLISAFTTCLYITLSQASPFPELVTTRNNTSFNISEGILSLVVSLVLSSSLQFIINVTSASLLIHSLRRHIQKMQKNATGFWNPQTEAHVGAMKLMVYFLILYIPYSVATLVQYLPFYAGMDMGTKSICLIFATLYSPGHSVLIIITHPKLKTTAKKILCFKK
- Test: Calcium imaging assay (FLIPR), HEK293T-Gα16gust44 cells transfected with human TAS2R4
- Type: cell-based
- Assay setup: Time (s) 46.781 (TCA, TLCA: 46.782)
Measurement name: RLU, fluorescence trace (RLU)

- Smiles str: "C[C@H](CCC(=O)NCCS(=O)(=O)O)[C@H]1CC[C@H]2[C@@H]3CC[C@@H]4C[C@H](O)CC[C@]4(C)[C@H]3CC[C@]12C"
  Measurement name: "RLU, fluorescence trace"
  Unit: "RLU"
  Recorded number: 198.067
- Smiles str: "C[C@H](CCC(=O)NCCS(=O)(=O)O)[C@H]1CC[C@H]2[C@@H]3[C@H](O)C[C@@H]4C[C@H](O)CC[C@]4(C)[C@H]3C[C@H](O)[C@]12C"
  Measurement name: "RLU, fluorescence trace"
  Unit: "RLU"
  Recorded number: 493.347
- Smiles str: "C[C@H](CCC(=O)O)[C@H]1CC[C@H]2[C@@H]3CC[C@@H]4C[C@H](O)CC[C@]4(C)[C@H]3C[C@H](O)[C@]12C"
  Measurement name: "RLU, fluorescence trace"
  Unit: "RLU"
  Recorded number: 293.169
- Smiles str: "C[C@H](CCC(=O)O)[C@H]1CC[C@H]2[C@@H]3[C@@H](O)C[C@@H]4C[C@H](O)CC[C@]4(C)[C@H]3CC[C@]12C"
  Measurement name: "RLU, fluorescence trace"
  Unit: "RLU"
  Recorded number: 405.893
- Smiles str: "C[C@H](CCC(=O)NCC(=O)O)[C@H]1CC[C@H]2[C@@H]3[C@H](O)C[C@@H]4C[C@H](O)CC[C@]4(C)[C@H]3C[C@H](O)[C@]12C"
  Measurement name: "RLU, fluorescence trace"
  Unit: "RLU"
  Recorded number: 885.437
- Smiles str: "C[C@H](CCC(=O)O)[C@H]1CC[C@H]2[C@@H]3[C@H](O)C[C@@H]4C[C@H](O)CC[C@]4(C)[C@H]3C[C@H](O)[C@]12C"
  Measurement name: "RLU, fluorescence trace"
  Unit: "RLU"
  Recorded number: 576.681
